The following molecules are listed with their measured pIC50 values.
Tested on: Human immunodeficiency virus 1
Assay: Antiviral activity against HIV1 infected in human PM1 cells expressing CCR5 assessed as inhibition of virus-induced cytopathogenicity by multi-round assay
Format: functional, organism-based
Settings: Human immunodeficiency virus 1, PM1
Scale: pIC50 equals -log10([C]), with [C] in mol/L.

In [3]: df
Out[3]:
                                   molecule  reported_endpoint  reported
0  CC1(C)CC(NC(=O)C(=O)Nc2ccc(Cl)cc2)CC(C)(C)N1              pIC50      6.05

# context switch: different molecule, same pIC50
Data request: Look at this molecule and give its reported pIC50. O=C(Nc1ccc(Cl)cc1)C(=O)NC1CC2(CCCCC2)NC2(CCCCC2)C1 (configuration not stated)
Data returned: 6.25

* * *

Experiment: Ratio of compound CC50 to NBD-556 CC50 for mock-infected human PM1 cells expressing CCR5 by WST-8 assay
Assay type: ADME, cell-based
Reported Endpoint: selectivity ratio
Reply with just the number.

Data request: Look at this compound and give its reported selectivity ratio. O=C(Nc1ccc(Cl)cc1)C(=O)NC1CC2(CCCCC2)NC2(CCCCC2)C1 (stereo unspecified)
Data returned: 4

* * *

Assay: Cytotoxicity against mock-infected human PM1 cells expressing CCR5 by WST-8 assay
Format: cell-based
The following molecules are listed with their measured CC50 values.
Field: numeric (µM). Do not append units.

                                   molecule  reported
0  CC1(C)CC(NC(=O)C(=O)Nc2ccc(Cl)cc2)CC(C)(C)N1        35
1        O=C(NCCc1ccccn1)C(=O)Nc1ccc(Cl)cc1       480

Data request: Look at this molecule and give its reported CC50. NC(=O)N1CCC(NC(=O)C(=O)Nc2ccc(Cl)cc2)CC1
Data returned: 310

* * *

System: PM1
Test: Induction of gp120 conformational change in R5 tropic Human immunodeficiency virus 1 subtype B isolate JR-FL infected in human PM1 cells assessed as binding of anti-HIV1 mAb 4C11 measuring mean fluorescence intensity at 100 uM preincubated for 15 mins by FACS analysis using antibody staining (reference value: 14.94 fluorescence intensity)
Format: cell-based
Flu intensity strictly less than 20 = 1.0. Otherwise 0.0.

Examples from the recorded data:
>>> print(df.to_string())
                                   compound  group
0  N=C(N)N1CCC(NC(=O)C(=O)Nc2ccc(Cl)cc2)CC1.O=C(O)C(F)(F)F    0.0
1        O=C(NCCc1ccccn1)C(=O)Nc1ccc(Cl)cc1    1.0
2  O=C(Nc1ccc(Cl)cc1)C(=O)NC1CCN(C(=O)c2ccccc2)CC1    1.0
3  NC(=O)N1CCC(NC(=O)C(=O)Nc2ccc(Cl)cc2)CC1    1.0
4  CC1(C)CC(NC(=O)C(=O)Nc2ccc(Cl)cc2)CC(C)(C)N1    0.0

Data request: Problem: For the compound O=C(Nc1ccc(F)cc1)C(=O)Nc1ccc(Cl)cc1 , is Flu intensity under 20?
Data returned: 1.0

Data request: Problem: For the compound O=C(Nc1ccc(Cl)cc1)C(=O)NC1CC2(CCCCC2)NC2(CCCCC2)C1 (centres undefined) , is Flu intensity under 20?
Data returned: 0.0

* * *

System: Human immunodeficiency virus 1
Assay: Antiviral activity against R5 tropic HIV1 YTA infected in human TZM-bl cells assessed as beta-galactosidase activity preincubated for 15 mins before infection measured after 2 days by single-round assay using luminometry
Assay type: functional, organism-based
Conditions: Human immunodeficiency virus 1, YTA
Reported Endpoint: IC50 (µM)
Field: numeric (µM). Do not append units.

Below, each entry is followed by its recorded IC50 result.
In [3]: df
Out[3]:
                              smiles_record                    assay_system  scale_unit  reported
0  Cc1ccc(NC(=O)C(=O)NC2CC(C)(C)NC(C)(C)C2)cc1  Human immunodeficiency virus 1          µM       8.4
1  O=C(Nc1ccc(Cl)cc1)C(=O)NC1CCN(C(=O)Nc2ccccc2)CC1  Human immunodeficiency virus 1          µM        11
2  CC1(C)CC(NC(=O)C(=O)Nc2ccc(Cl)cc2)CC(C)(C)N1  Human immunodeficiency virus 1          µM      0.61
3          O=C(Nc1ccc(Cl)cc1)C(=O)NC1CCNCC1  Human immunodeficiency virus 1          µM         7
4  NC(=O)N1CCC(NC(=O)C(=O)Nc2ccc(Cl)cc2)CC1  Human immunodeficiency virus 1          µM       8.3
5  O=C(Nc1ccc(Cl)cc1)C(=O)NC1CCN(C(=O)c2ccccc2)CC1  Human immunodeficiency virus 1          µM       5.1

# context switch: different compound, same IC50
Data request: Look at this compound and give its reported IC50. O=C(Nc1ccc(F)cc1)C(=O)Nc1ccc(Cl)cc1
Data returned: 3.1

* * *

Experiment: Cytotoxicity against mock-infected human PM1 cells expressing CCR5 by WST-8 assay
Format: cell-based
CC50 strictly less than 50 µM = Satisfied. Otherwise Not satisfied.

>>> print(df.to_string())
                               molecule          group
0  O=C(Nc1ccc(Cl)cc1)C(=O)Nc1ccc(Cl)cc1  Not satisfied

Data request: Problem: For the molecule O=C(Nc1ccc(Cl)cc1)C(=O)Nc1ccc(Br)cc1 , is CC50 under 50 µM?
Data returned: Not satisfied

Data request: Problem: For the molecule O=C(Nc1ccc(Cl)cc1)C(=O)NC1CC2(CCCCC2)NC2(CCCCC2)C1 (centres undefined) , is CC50 under 50 µM?
Data returned: Not satisfied

Data request: Problem: For the molecule O=C(Nc1ccc(Cl)cc1)C(=O)NC1CCN(C(=O)Nc2ccccc2)CC1 , is CC50 under 50 µM?
Data returned: Satisfied

Data request: Problem: For the molecule N=C(N)N1CCC(NC(=O)C(=O)Nc2ccc(Cl)cc2)CC1.O=C(O)C(F)(F)F , is CC50 under 50 µM?
Data returned: Not satisfied

Data request: Problem: For the molecule NC(=S)N1CCC(NC(=O)C(=O)Nc2ccc(Cl)cc2)CC1 , is CC50 under 50 µM?
Data returned: Satisfied

Data request: Problem: For the molecule O=C(Nc1ccc(F)cc1)C(=O)Nc1ccc(Cl)cc1 , is CC50 under 50 µM?
Data returned: Not satisfied

Data request: Problem: For the molecule Cc1ccc(NC(=O)C(=O)NC2CC(C)(C)NC(C)(C)C2)cc1 , is CC50 under 50 µM?
Data returned: Not satisfied

Reference source for all entries: ChEMBL document CHEMBL1914307
